Test system: Chlamydia trachomatis (Ctr) strain L2/434/Bu
Test: Ctr infectivity assay, progeny infection, cellular protection by GFP microscopy quantification
Type: cell-based
Details: Chlamydia trachomatis, HeLa 229, 48 h; 25 μM compound; HeLa229 cells, Ctr MOI1, progeny infection fixed 48 hpi; versus solvent-treated cells
From the text: Chlamydia trachomatis (Ctr). Laboratory-adapted strain L2/434/Bu (ATCC VR902B) was used in assays. Full biological and genetic information is available for this strain including complete genome sequence and defined proteome. […] Compound application during Chlamydia trachomatis infection. […] Cells were stained for DAPI and Chlamydia trachomatis were detected by GFP-signal. […]
Please respond with reported inhibition at 25 µM for every item in the list.
Numbers only here, please. The scale is %.

Ask: Tell me its inhibition at 25 µM given CCC(=O)N1CC(=O)Nc2ccc(Br)cc2C1c1ccccc1 (centres unmarked) as the entry.
Reply: 26.5

Ask: Report inhibition at 25 µM, nothing else, for this compound: CN1C(=O)CN=C(c2ccccc2Cl)c2cc(Cl)ccc21
Reply: 47

Ask: Please look at this compound and report its inhibition at 25 µM: O=C1CN=C(c2ccccc2)c2cc(Br)ccc2N1
Reply: 61.5

Ask: Give a short answer stating reported inhibition at 25 µM for CC1CCC(N2CC(=O)Nc3ccc(Br)cc3C2c2ccccc2)C1 (centres unmarked) .
Reply: 100

Ask: Indicate the recorded inhibition at 25 µM value for this compound: O=C1CN=C(c2ccccc2)c2cc(Br)cc(Br)c2N1
Reply: 57.8

Ask: Answer with the recorded inhibition at 25 µM of O=C1CN=C(c2ccccc2Cl)c2cc(Cl)ccc2N1 only.
Reply: 90.6

Ask: Provide inhibition at 25 µM value for the following compound: O=C1CN(C2CCCC2)C(c2ccccc2)c2cc(Br)ccc2N1 (centres unmarked)
Reply: 20.2

Ask: Return the recorded inhibition at 25 µM value; entry: O=C1CNC(c2ccccc2)c2cc(Br)ccc2N1 (centres unmarked)
Reply: 27.6
